Just for reference, paper PMC3626250 is where these values come from.

Catalogue of concentration at 1 h readings, one per entry.
- Test Description: Tissue distribution study in rabbits after oral Panax notoginseng extract with or without Borneol
- Format: in vivo, New Zealand rabbits
- Measurement Parameters: New Zealand, rabbit, liver, po, 1.0 h, oral Panax notoginseng with Borneol, read-out: Concentration in liver
Quantity Name: concentration at 1 h (ng/g)

INSERT INTO measurements (compound, observed_value) VALUES
  ('CC(C)=CCC[C@](C)(O[C@@H]1O[C@H](CO)[C@@H](O)[C@H](O)[C@H]1O)[C@H]1CC[C@]2(C)[C@@H]1[C@H](O)C[C@@H]1[C@@]3(C)CC[C@H](O)C(C)(C)[C@@H]3[C@@H](O[C@@H]3O[C@H](CO)[C@@H](O)[C@H](O)[C@H]3O[C@@H]3O[C@@H](C)[C@H](O)[C@@H](O)[C@H]3O)C[C@]12C [GRe, ginsenoside Re]', 4770),
  ('CC(C)=CCC[C@](C)(O[C@@H]1O[C@H](CO)[C@@H](O)[C@H](O)[C@H]1O)[C@H]1CC[C@]2(C)[C@@H]1[C@H](O)C[C@@H]1[C@@]3(C)CC[C@H](O)C(C)(C)[C@@H]3[C@@H](O[C@@H]3O[C@H](CO)[C@@H](O)[C@H](O)[C@H]3O)C[C@]12C [GRg1, ginsenoside Rg1]', 59000);
